The reported numbers originate from ChEMBL document CHEMBL5728503.

Entries below carry reported log10 Kd on Endoplasmin (Canis lupus familiaris).
Sequence (P41148 whole entry): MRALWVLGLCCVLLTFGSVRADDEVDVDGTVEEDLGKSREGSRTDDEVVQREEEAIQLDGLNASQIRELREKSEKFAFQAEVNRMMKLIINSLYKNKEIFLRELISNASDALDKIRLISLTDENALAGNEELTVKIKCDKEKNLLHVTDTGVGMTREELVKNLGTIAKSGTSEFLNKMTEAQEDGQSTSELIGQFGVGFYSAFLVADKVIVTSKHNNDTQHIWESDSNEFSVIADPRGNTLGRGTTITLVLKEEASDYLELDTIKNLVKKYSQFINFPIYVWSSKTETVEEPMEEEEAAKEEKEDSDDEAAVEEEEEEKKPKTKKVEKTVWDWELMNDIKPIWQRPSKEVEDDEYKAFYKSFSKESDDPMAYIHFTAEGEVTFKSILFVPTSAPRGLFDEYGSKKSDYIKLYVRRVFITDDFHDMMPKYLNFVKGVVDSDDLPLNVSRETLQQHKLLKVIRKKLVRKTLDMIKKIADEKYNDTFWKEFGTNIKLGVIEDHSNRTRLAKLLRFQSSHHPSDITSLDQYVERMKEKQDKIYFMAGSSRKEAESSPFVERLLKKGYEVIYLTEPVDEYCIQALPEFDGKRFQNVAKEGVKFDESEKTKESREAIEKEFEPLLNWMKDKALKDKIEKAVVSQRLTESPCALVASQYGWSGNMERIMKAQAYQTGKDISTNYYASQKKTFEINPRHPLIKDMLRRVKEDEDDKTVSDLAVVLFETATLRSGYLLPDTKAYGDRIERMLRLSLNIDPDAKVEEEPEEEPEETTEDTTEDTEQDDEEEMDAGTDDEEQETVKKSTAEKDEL
Measured Quantity: log10 Kd (log10 of the value in µM)

- CCOc1ccccc1Cc1ccccc1CCc1c(Cl)c(O)cc(O)c1C(=O)OC: 0.79
- COC(=O)c1c(O)cc(O)c(Cl)c1CCc1cccc(Cc2ccccc2)c1: 1.02
- COC(=O)c1c(O)cc(O)c(Cl)c1CCc1cc(OC)ccc1Cc1ccccc1: -0.35
- COC(=O)c1c(O)cc(O)c(Cl)c1CCc1cccc(O)c1Cc1ccccc1: -0.27
- COC(=O)c1c(O)cc(O)c(Cl)c1CCc1ccccc1Cc1ccccc1Cl: 0.74
- COC(=O)c1c(O)cc(O)c(Cl)c1CCc1ccccc1Cc1ccccc1OC: 0.89
- COC(=O)c1c(O)cc(O)c(Cl)c1CCc1cc(N)ccc1Cc1ccccc1: -0.55
- COC(=O)c1c(O)cc(O)c(Cl)c1CCc1ccc(O)cc1Cc1ccccc1: -0.48
- COC(=O)c1c(O)cc(O)c(Cl)c1CCc1ccccc1Cc1ccc(Cl)cc1: 0.62
